These measurements were taken from patent EP4289863A9.

measured.on: T1, human IL-36R (human, UniProt Q9HB29 20-575)
T1 sequence (looked up): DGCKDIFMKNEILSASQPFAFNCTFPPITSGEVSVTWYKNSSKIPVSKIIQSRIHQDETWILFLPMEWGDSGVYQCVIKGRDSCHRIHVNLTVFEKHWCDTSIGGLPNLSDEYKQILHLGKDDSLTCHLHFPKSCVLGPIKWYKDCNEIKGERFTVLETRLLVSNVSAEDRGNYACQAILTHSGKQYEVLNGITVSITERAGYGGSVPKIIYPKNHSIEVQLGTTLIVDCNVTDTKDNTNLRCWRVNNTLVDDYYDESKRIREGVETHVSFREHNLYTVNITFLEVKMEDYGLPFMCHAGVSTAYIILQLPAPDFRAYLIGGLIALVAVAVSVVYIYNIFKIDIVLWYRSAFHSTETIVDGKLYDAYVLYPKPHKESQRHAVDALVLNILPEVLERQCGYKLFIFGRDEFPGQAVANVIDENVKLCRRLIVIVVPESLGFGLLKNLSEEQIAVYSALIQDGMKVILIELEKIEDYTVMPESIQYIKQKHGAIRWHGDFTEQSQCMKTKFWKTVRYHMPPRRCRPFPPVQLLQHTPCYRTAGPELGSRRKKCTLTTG
protocol.details: cell-based or functional assay
measurement.label: IC50 of IL-6 release, NCI/ADR-RES cells stimulated with IL-36α (µg/mL)
Answers are plain numbers, in µg/mL.

Tell us which IC50 of IL-6 release, NCI/ADR-RES cells stimulated with IL-36α value is on record for humanized anti-IL-36R antibody 900527 (antibody, V domains shown, IgG1 (vector with L234A, L235A) and human kappa) VH: QVQLVQSGAEVKKPGASVKVSCKASGYTFTSSWMHWAKQAPGQGLEWIGEIHPNSAKTNYNQKFQGRVTMTRDTSISTAYMELSRLRSDDTAVYYCARVDYGKPWFAYWGQGTLVTVSS VL: QIVLTQSPGTLSLSPGERATLSCRASSSVSSSYLHWYQQKPGQAPRLWIYSTSSRATGIPDRFSGSGSGTDFTLTISRLEPEDFATYYCQQFQSSPLTFGQGTKLEIK
0.015
